Cited source for all entries: ChEMBL document CHEMBL1129488

The entries below are paired with their reported pKa.
# method_notes: physchem
# Description: pKa value is evaluated by nonlinear regression analysis of pH-dependent partition measurements.
measure: pKa

>  <smiles_representation>
Cc1ccc(NC(=O)N[C@@H]2N=C(c3ccccc3)c3ccccc3N(C)C2=O)cc1Nc1nn[nH]n1

>  <measure>
pKa

>  <recorded_measurement>
1.37

$$$$
>  <smiles_representation>
CN1C(=O)[C@H](NC(=O)Nc2cccc(Nc3nn[nH]n3)c2)N=C(c2ccccc2)c2ccccc21

>  <measure>
pKa

>  <recorded_measurement>
5.1

$$$$
>  <smiles_representation>
CN1C(=O)[C@H](NC(=O)Nc2cccc(CNc3nn[nH]n3)c2)N=C(c2ccccc2)c2ccccc21

>  <measure>
pKa

>  <recorded_measurement>
5.9

$$$$
>  <smiles_representation>
CN1C(=O)[C@H](NC(=O)Nc2ccc3c(c2)N(c2nn[nH]n2)CC3)N=C(c2ccccc2)c2ccccc21

>  <measure>
pKa

>  <recorded_measurement>
4.8

$$$$
